Each recorded value in this set is attributed to the supplement of paper PMC10567573.

B1: LOC100129726 (parent)
chain: AKAADSPTRNDLESGLGHFSLRVH

# Variants of: B1
# assay_text: protein stability index of a GFP-peptide fusion (GPS, HEK-293T) (PSI 1-6); higher = more stable;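 further: lentivirally expressed fusions sorted by FACS into six bins by GFP to DsRed ratio, PSI derived from sequencing read proportions per bin multiplied by bin number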
# condition_context: c terminus: a fixed tail appended
readout_type: protein stability index
Please reply with the number alone, leaving off any unit.

Prompt line: Param item = G17V ; retrieve measured protein stability index.
Response line: 3.13

Prompt line: Repeat for the following variant: A4Y
Response line: 2.42

Prompt line: S14I , same question.
Response line: 2.38

Prompt line: What about this variant? L21C
Response line: 4.2

Prompt line: Now give it for G15M too.
Response line: 2.23

Prompt line: Then this variant: L21M
Response line: 3.6

Prompt line: Would you mind doing K2H as well?
Response line: 3.38

Prompt line: Now consider E13D and answer again.
Response line: 2.95

Prompt line: Follow-up item: A3V
Response line: 2.28

Prompt line: Then what about the variant A4T ?
Response line: 3.7

Prompt line: Now this one: D11Q
Response line: 2.8

Prompt line: Then this variant: L16N
Response line: 3.67

Prompt line: Same question for S6K please.
Response line: 2.98

Prompt line: Another: H18N
Response line: 3.53

Prompt line: And T8R ?
Response line: 2.53

Prompt line: Next variant up: P7E
Response line: 3.28

Prompt line: // query: S14P
Response line: 2.85

Prompt line: Cool, now E13G
Response line: 2.02

Prompt line: Follow-up item: P7N
Response line: 3.27

Prompt line: A1R , same question.
Response line: 2.74

Prompt line: Then this variant: N10D
Response line: 3.61

Prompt line: Moving on to D5G
Response line: 2.9

Prompt line: Also need R22F , thanks.
Response line: 2.43

Prompt line: Further, for D11W ?
Response line: 2.56

Prompt line: Next entry: A1G
Response line: 3.1

Prompt line: Query A3P next
Response line: 3.04

Prompt line: Please answer likewise for L16Y
Response line: 2.84

Prompt line: Next variant up: A3Q
Response line: 3.03

Prompt line: How about this variant: S6E
Response line: 3.5

Prompt line: Thanks! And L21N ?
Response line: 4.3

Prompt line: Request: S20F
Response line: 2.05

Prompt line: R9A ?
Response line: 3.47

Prompt line: Moving on to the next variant: E13P
Response line: 2.57

Prompt line: Consider next the variant G15L in the same way.
Response line: 2.37

Prompt line: Next variant up: V23P
Response line: 4.13

Prompt line: // same read-out, input: A3H
Response line: 3

Prompt line: Then R22E ?
Response line: 3.92

Prompt line: Quick one: L16Q
Response line: 3.28

Prompt line: Param item: H24P
Response line: 3.73

Prompt line: Request: N10G
Response line: 2.77

Prompt line: Next up: P7Y
Response line: 2.18

Prompt line: Another variant: H24C
Response line: 2.49

Prompt line: Next entry: A1F
Response line: 2.6

Prompt line: Same lookup for K2L , please.
Response line: 3.03

Prompt line: Try A1W next.
Response line: 2.33

Prompt line: Let us now turn to T8H
Response line: 2.63

Prompt line: Subsequent entry: S14K
Response line: 3.36

Prompt line: Follow-up item: H24G
Response line: 2.64

Prompt line: Thanks! And R9H ?
Response line: 3.56

Prompt line: Moving on to the next variant: S20A
Response line: 3.29

Prompt line: And the next one, P7V ?
Response line: 2.7

Prompt line: One more variant: L16I
Response line: 3.71

Prompt line: Try this variant next: V23Y
Response line: 2.61

Prompt line: Let us now turn to R22K
Response line: 3.59

Prompt line: Do the same for G17L please
Response line: 1.65

Prompt line: Then this variant: S20G
Response line: 3.11

Prompt line: Please do the same for H18M as well.
Response line: 2.29

Prompt line: Please give the result for S14T too.
Response line: 2.94

Prompt line: Check K2G too.
Response line: 2.71

Prompt line: Entry N10Q please
Response line: 3.87

Prompt line: Repeat with G15S
Response line: 2.86

Prompt line: Queued: G17Y
Response line: 2.37

Prompt line: Please answer likewise for D5F
Response line: 2.17

Prompt line: Try G15H next.
Response line: 3.26

Prompt line: For H18V then?
Response line: 2.73

Prompt line: Would you kindly repeat that for D11Y ?
Response line: 2.25

Prompt line: Similarly, L16W ?
Response line: 2.74

Prompt line: Entry to check: A4S
Response line: 3.1

Prompt line: Entry R22G please
Response line: 3.5

Prompt line: Same for S6P
Response line: 3.16

Prompt line: Now give it for V23F too.
Response line: 2.14

Prompt line: Repeat for the following variant: R9Y
Response line: 2.7

Prompt line: Note, next up: S20K
Response line: 3.4

Prompt line: And then D11C , what is it?
Response line: 2.91

Prompt line: Now try P7Q .
Response line: 3.41

Prompt line: Field entry: R22M
Response line: 2.61

Prompt line: Also E13R ?
Response line: 2.38

Prompt line: What about this variant? D5Q
Response line: 3.15

Prompt line: // next record G15V
Response line: 2.48

Prompt line: Same lookup for S14Y , please.
Response line: 3.97

Prompt line: Also R9T , if possible.
Response line: 3.09

Prompt line: Thanks! And A1V ?
Response line: 3.39

Prompt line: Same question, T8G this time
Response line: 3.61

Prompt line: Now the variant L12S
Response line: 4.46

Prompt line: Repeat for the following variant: V23R
Response line: 4.03

Prompt line: Then R9I ?
Response line: 2.37

Prompt line: Subsequent entry: A4H
Response line: 3.36

Prompt line: // query: D5S
Response line: 3.07

Prompt line: Next record, please: D5P
Response line: 2.48

Prompt line: Another: G17E
Response line: 3.58

Prompt line: Same read-out for S6Q ?
Response line: 3.76
